B1: TPR 5TU (parent)
chain: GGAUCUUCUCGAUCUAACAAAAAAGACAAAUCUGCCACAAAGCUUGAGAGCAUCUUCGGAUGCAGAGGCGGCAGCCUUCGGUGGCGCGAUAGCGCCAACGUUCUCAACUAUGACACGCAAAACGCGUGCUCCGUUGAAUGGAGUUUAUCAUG

Variants of: B1
experimentSummary: polymerase ribozyme fitness, log enrichment relative to wild type (log ratio); higher = more active; in vitro selection for triplet polymerase activity
This sample holds only a part of the variants without activity.

{"columns": ["mutationAnnotation", "polymerase ribozyme fitness (log ratio)"],
 "data": [
  ["U109A G141A A142U", "≤ -4.2"],
  ["A16G C36U A49C G88A C93G A107U G140U G143C", "≤ -4.2"],
  ["A28U A47C U130G", "≤ -4.2"],
  ["A52G C57G C87U", -1.27],
  ["U55A G124U", -2],
  ["A17G A30G C36A C99A", "≤ -4.2"],
  ["C14G C85A C95G C103U U146A", "≤ -4.2"],
  ["A16G A40C", -0.456],
  ["C96A G117U A138U", "≤ -4.2"],
  ["A28U A29C U45A G58C C85U C105U A106G", "≤ -4.2"],
  ["A24C C27G A29U C57U G86C C103A", "≤ -4.2"],
  ["C54A G58A G94A A98U", -0.552],
  ["U6G A120G", -0.399],
  ["U6G A21U G94A U104G U127A", "≤ -4.2"],
  ["U77G C93U G117C", "≤ -4.2"],
  ["A37U G94A", -1],
  ["C14U U15G U45A G58U C75G U135C", "≤ -4.2"],
  ["U31G U53A C95U U135G", -3.6],
  ["C5A A17U G42A G83C U102A A119U G126U G141U", "≤ -4.2"],
  ["G11C A23G A91G C95U A121G", -3.82],
  ["C79U C87U A113G", -4.11],
  ["G42C U55A C85U", "≤ -4.2"]
]}

Just for reference, the RNAGym collection of RNA variant scans (doi:10.1073/pnas.2313332121) is where these values come from.
